Biological target: NRAS G12C (Homo sapiens (Human), UniProt P01111+P62937, G12C)
Sequence (P01111 whole entry G12C): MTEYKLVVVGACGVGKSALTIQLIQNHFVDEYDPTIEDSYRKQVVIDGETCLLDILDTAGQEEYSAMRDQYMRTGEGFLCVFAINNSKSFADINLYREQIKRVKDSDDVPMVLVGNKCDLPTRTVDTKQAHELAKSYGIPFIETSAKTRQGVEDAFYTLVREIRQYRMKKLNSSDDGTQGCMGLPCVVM
Sequence (P62937 whole entry): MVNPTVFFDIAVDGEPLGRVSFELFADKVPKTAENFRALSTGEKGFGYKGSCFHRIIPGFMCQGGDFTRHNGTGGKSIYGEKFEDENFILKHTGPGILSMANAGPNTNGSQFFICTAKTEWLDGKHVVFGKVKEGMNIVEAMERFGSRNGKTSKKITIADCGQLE
Assay: Ras-Raf (BRAF RBD) disruption / FRET / MOA assay, NRAS G12C
Format: biochemical
Conditions: read-out: IC50* NRAS G12C FRET data

compound	system_under_test	IC50
CCn1c(-c2cccnc2[C@H](C)OC)c2c3cc(ccc31)-c1cccc(c1)C[C@H](NC(=O)[C@H](C(C)C)N(C)C(=O)[C@H]1CCN(C(=O)C#CC(C)(C)N3CCC(F)(F)C3)C1)C(=O)N1CCC[C@H](N1)C(=O)OCC(C)(C)C2 (atropisomer, axis not shown) [Example A325]	NRAS G12C (Homo sapiens (Human), UniProt P01111+P62937, G12C)	1000 to 10000 nM
C=CS(=O)(=O)N1CC[C@H](C(=O)N(C)[C@H](C(=O)N[C@H]2Cc3cc(O)cc(c3)-c3ccc4c(c3)c(c(-c3cncnc3)n4CC)CC(C)(C)COC(=O)[C@@H]3CCCN(N3)C2=O)C(C)C)C1 [Example A172]	NRAS G12C (Homo sapiens (Human), UniProt P01111+P62937, G12C)	10 to 100 nM
C=CC(=O)N1CC[C@H](C(=O)N(C)[C@H](C(=O)N[C@H]2Cc3cccc(c3)-c3ccc4c(c3)c(c(-c3cccnc3[C@H](C)OC)n4CC)CC(C)(C)COC(=O)[C@@H]3CCCN(N3)C2=O)C2CC2)C1 (atropisomer, axis not shown) [Example A320]	NRAS G12C (Homo sapiens (Human), UniProt P01111+P62937, G12C)	100 to 1000 nM
C=CC(=O)N1CCCC2(CCN(C(=O)N(C)[C@H](C(=O)N[C@H]3Cc4nc(cs4)-c4ccc5c(c4)c(c(-c4cccnc4[C@H](C)OC)n5CC)CC(C)(C)COC(=O)[C@@H]4CCCN(N4)C3=O)C(C)C)CC2)C1 (atropisomer, axis not shown) [Example A635]	NRAS G12C (Homo sapiens (Human), UniProt P01111+P62937, G12C)	100 to 1000 nM
CCn1c(-c2cccnc2[C@H](C)OC)c2c3cc(ccc31)-c1cccc(c1)C[C@H](NC(=O)[C@@H](CO[C@@H]1CCN(C(=O)C#CC(C)(C)N(C)C)C1)C(C)C)C(=O)N1CCC[C@H](N1)C(=O)OCC(C)(C)C2 (atropisomer, axis not shown) [Example A584]	NRAS G12C (Homo sapiens (Human), UniProt P01111+P62937, G12C)	10 to 100 nM
C=CC(=O)N1CCO[C@@H]2CCN(C(=O)N(C)[C@H](C(=O)N[C@H]3Cc4nc(cs4)-c4ccc5c(c4)c(c(-c4cccnc4[C@H](C)OC)n5CC)CC(C)(C)COC(=O)[C@@H]4CCCN(N4)C3=O)C(C)C)CC21 (stereo partly drawn) [Example A596]	NRAS G12C (Homo sapiens (Human), UniProt P01111+P62937, G12C)	10 to 100 nM

The measurements presented in this section are drawn from patent US11566007B2.
